Source listed as patent US20250092406.

biological target: SARS-CoV-2 spike glycoprotein subunit 1 (S1) (SARS-CoV-2) (UniProt P0DTC2); assay: BLI; conditions: SEQ 37 part DNA primer, selected region TNA 3'-2', threomer base modification (side chain not stated, probably UTrp)
experimental_readout: pKd
Numbers only, as −log10 of the molar value.

Supply pKd measured with SARS-CoV-2 spike glycoprotein subunit 1 (S1) (SARS-CoV-2) (UniProt P0DTC2) for GTCCCCTTGGGGATACCACCTTAGTATTATTATGGGTGCGTGAGTTTCCAAGAAGCGCGT [TNA 949] . 9.15

---

target: SARS-CoV-2 spike glycoprotein subunit 1 (S1) (SARS-CoV-2); test: BLI; conditions: SEQ 37 part DNA primer, selected region TNA 3'-2', all T = C5-benzyl carboxamide U (UPhe)
experimental_readout: pKd
Answers are plain numbers, as −log10 of the molar value.

See these solved cases before continuing.
[[record]]
sequence_input = "GTCCCCTTGGGGATACCACCACGATGGACTTGGGTAGCTAGTCAGGTTAGGCTGTTTGGA [S1 Phe entry 11]"
observed_measurement = 7.66

[[record]]
sequence_input = "GTCCCCTTGGGGATACCACCGAGAGTCATAGTAGTTCACGGGTCTGCAGCTTACGCATGT [S1 Phe entry 6]"
observed_measurement = 7.95

[[record]]
sequence_input = "GTCCCCTTGGGGATACCACCTATTGGAACTCCCGAGCAGGCTGTCCCATGGAAGACTACA [S1 Phe entry 3]"
observed_measurement = 8.59


Please list pKd recorded for the sequence GTCCCCTTGGGGATACCACCAGAACTTCGTCAGCGTCTTACCGAGTCCAAGGACTGGCTA [S1 Phe entry 12] 7.54
